test: qHTS assay to identify small molecule antagonists of the sonic hedgehog signaling (Shh) pathway - cell viability counter screen (AID 1259367); conditions: NIH/3T3 Gli1-Luc viability, CellTiter-Fluor, 24 h; series mostly up to 92.4 µM; further: on the % scale 0 is the no-effect control and ±100 the full control effect; nearly all actives have a fitted effect of over 55% in size
Inconclusive results are not listed. Calls of active or inactive are those of the source. The call rests on the fitted dose curve; in most records, active means well fitted cell-killing curve with a large enough effect in the repeat runs; inconclusive means weak or mixed curves, or effect the other way; inactive means no such curve, though single readings can be large or run the other way.
# output must be one of True = active, False = inactive

Before answering, review these 3 worked examples.
# compound, discrete_label
data = [
    ("CCCCCCC=O", "False"),
    ("CC(C)CCCCCCCOC(=O)CCCCC(=O)OCCCCCCCC(C)C", "False"),
    ("CN(C)c1ccc(Cc2ccc(N(C)C)cc2)cc1", "False"),
]

-- ask Record lookup: outcome of this test for CCOCC(=O)O ?
-- reply False

-- ask Record lookup: outcome of this test for O=S(=O)(O)c1ccccc1 ?
-- reply False

-- ask Record lookup: outcome of this test for CC(=O)CCC=C(C)C ?
-- reply False

-- ask Record lookup: outcome of this test for COc1ccc(N)c(C)c1 ?
-- reply False

-- ask Record lookup: outcome of this test for O=C1CCCC1 ?
-- reply False

-- ask Record lookup: outcome of this test for CC(=O)c1ccc(O)cc1 ?
-- reply False

-- ask Record lookup: outcome of this test for CCc1ccccc1CC ?
-- reply False

-- ask Record lookup: outcome of this test for O=C1C(c2[nH]c3ccccc3c2O)=Nc2ccccc21 ?
-- reply False

-- ask Record lookup: outcome of this test for CCCCCC(=O)O ?
-- reply False

----------
target: Estrogen receptor (Homo sapiens) (UniProt P03372); test: qHTS assay to identify small molecule agonists of the estrogen receptor alpha (ER-alpha) signaling pathway in the presence of an antagonist (AID 1259383); conditions: VM7Luc4E2 cells, ERE-luciferase, +ICI-182,780, 22 h; series mostly up to 92.4 µM; further: top concentration of the series differs between compounds; on the % scale 0 is the no-effect control and ±100 the full control effect; nearly all actives have a fitted effect of over 15% in size
Sequence (P03372 whole entry, looked up): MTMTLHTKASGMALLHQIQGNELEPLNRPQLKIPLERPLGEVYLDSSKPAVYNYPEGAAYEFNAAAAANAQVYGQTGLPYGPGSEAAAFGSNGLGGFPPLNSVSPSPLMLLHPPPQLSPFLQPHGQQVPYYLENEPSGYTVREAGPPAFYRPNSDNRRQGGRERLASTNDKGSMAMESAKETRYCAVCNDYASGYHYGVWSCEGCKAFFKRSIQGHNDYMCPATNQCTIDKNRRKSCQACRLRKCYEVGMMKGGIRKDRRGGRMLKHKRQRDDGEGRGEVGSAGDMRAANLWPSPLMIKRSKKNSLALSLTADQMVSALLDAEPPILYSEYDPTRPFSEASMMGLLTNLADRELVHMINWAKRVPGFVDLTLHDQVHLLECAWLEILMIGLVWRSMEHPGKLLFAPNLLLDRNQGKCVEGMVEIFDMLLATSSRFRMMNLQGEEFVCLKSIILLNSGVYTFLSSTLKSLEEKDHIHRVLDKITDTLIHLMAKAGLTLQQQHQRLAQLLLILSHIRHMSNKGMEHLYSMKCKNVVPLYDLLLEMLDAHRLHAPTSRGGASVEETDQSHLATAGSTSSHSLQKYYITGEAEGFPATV
The source made the active and inactive calls. The call rests on the fitted dose curve.
measured_parameter: outcome

// known answers, use as guide
# molecule, outcome
data = [
    ("Nc1nc(N)nc(-c2ccccc2)n1", "inactive"),
    ("CCCCCCCO", "inactive"),
    ("CNC(=O)Oc1ccc2c(c1)[C@]1(C)CCN(C)[C@@H]1N2C", "inactive"),
    ("C[Si]1(C)O[Si](C)(C)O[Si](C)(C)O[Si](C)(C)O1", "inactive"),
    ("CCCCCCC=O", "inactive"),
    ("CC(C)CC(C)O (configuration not stated)", "inactive"),
]

For each listed entry, give its outcome.
1. OC1C(O)C(O)C(O)C(O)C1O (configuration not stated)
2. O=c1[nH]cnc2[nH]ncc12
3. CC1(C)S[C@@H]2[C@H](NC(=O)COc3ccccc3)C(=O)N2[C@H]1C(=O)O

-- reply
1: inactive; 2: inactive; 3: inactive

For each listed entry, give its outcome.
1. COc1ccc(N)c(C)c1
2. Brc1ccc(Br)c(Br)c1
3. Cc1ccc(S(=O)(=O)N=C=O)cc1

-- reply
1. inactive
2. inactive
3. inactive

----------
target: Nuclear receptor subfamily 1 group I member 2 (Rattus norvegicus) (UniProt Q9R1A7); assay: Rat pregnane X receptor (rPXR) activation by small molecules, qHTS assay (AID 1346983); conditions: rPXR luciferase reporter cells, One-Glo luminescence, 24 h; hits give high values; further: on the % scale 0 is the no-effect control and ±100 the full control effect; nearly all actives have a fitted effect of over 20% in size
Sequence (Q9R1A7 whole entry, looked up): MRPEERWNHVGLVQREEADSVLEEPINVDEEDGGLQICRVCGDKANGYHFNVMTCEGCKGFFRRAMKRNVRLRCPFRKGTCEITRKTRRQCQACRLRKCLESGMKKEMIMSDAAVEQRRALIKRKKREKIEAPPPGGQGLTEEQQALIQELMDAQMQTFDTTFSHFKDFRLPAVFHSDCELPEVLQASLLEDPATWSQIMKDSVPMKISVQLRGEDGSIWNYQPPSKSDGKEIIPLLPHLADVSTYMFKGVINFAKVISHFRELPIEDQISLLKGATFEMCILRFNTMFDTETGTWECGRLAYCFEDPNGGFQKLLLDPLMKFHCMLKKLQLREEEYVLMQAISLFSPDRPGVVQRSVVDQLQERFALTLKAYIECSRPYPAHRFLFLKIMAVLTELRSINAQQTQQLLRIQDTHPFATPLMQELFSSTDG
Results filed as inconclusive are left out.
measured_parameter: max activation (%)
Give bare numbers, in %.

# compound, units, number
rows = [
    ("CC(C)(Oc1ccc(CCNC(=O)c2ccc(Cl)cc2)cc1)C(=O)O", "%", -0.19),
    ("O=C(O)c1ccc(S(=O)(=O)N(Cl)Cl)cc1", "%", 4.13),
    ("N[C@H](Cc1c[nH]c2ccccc12)C(=O)O", "%", -2.63),
    ("CNC(=O)Oc1ccc2c(c1)[C@]1(C)CCN(C)[C@@H]1N2C", "%", -1.54),
]

For each listed entry, give its max activation.
1. CCOC(=O)c1ccc(N)cc1
2. CC1(C)OC[C@@H]2O[C@@]3(C(=O)O)OC(C)(C)O[C@H]3[C@@H]2O1
3. OC1C(O)C(O)C(O)C(O)C1O (centres undefined)
4. CCCCCCCCCCCCCCCCO
5. C[C@]12CC[C@@H]3c4ccc(O)cc4CC[C@H]3[C@@H]1C[C@@H](O)[C@@H]2O
6. CC(=O)Oc1ccc(C)cc1
7. CC(C)(C#N)c1cc(Cn2cncn2)cc(C(C)(C)C#N)c1
8. C=CCCCCCCCCC(=O)O

-- reply
1: -0.927; 2: -1.74; 3: -0.165; 4: -1.74; 5: -0.315; 6: -1.62; 7: 0.273; 8: -1.23

For each listed entry, give its max activation.
1. C[C@]12CCC(=O)C=C1CC[C@@H]1[C@@H]2[C@@H](O)C[C@@]2(C)[C@H]1CC[C@]2(O)C(=O)CO
2. CN/C(=C\[N+](=O)[O-])NCCSCc1csc(CN(C)C)n1

-- reply
1: 9.15; 2: -2.39

----------
experiment: Caspase-3/7 induction in HepG2 cells by small molecules, qHTS assay (AID 1346978); settings: HepG2 caspase-3/7 activation, Caspase-Glo luminescence, 17 h; series mostly up to 92.4 µM; further: on the % scale 0 is the no-effect control and ±100 the full control effect; nearly all actives have a fitted effect of over 15% in size
Records with an inconclusive call do not appear. Calls of active or inactive are those of the source. Calls come from the whole dose curve; as a rule, active = well fitted activation curve with a large enough effect in the repeat runs; inconclusive = weak or mixed curves; inactive = flat fitted curve, though single readings scatter.
measured_parameter: outcome

// known answers, use as guide
# compound, outcome
records = [
    ("C=CCCCCCCCCC(=O)O", "inactive"),
    ("CCO[Si](CCCN)(OCC)OCC", "inactive"),
    ("C=Cc1ccc(C)cc1", "inactive"),
    ("O=[N+]([O-])c1ccc2nc[nH]c2c1", "inactive"),
    ("Cc1ccc(C(C)C)c(O)c1", "inactive"),
]

For each listed entry, give its outcome.
1. CCOCC(=O)O
2. CC1(C)S[C@@H]2[C@H](NC(=O)COc3ccccc3)C(=O)N2[C@H]1C(=O)O

-- reply
1: inactive; 2: inactive

For each listed entry, give its outcome.
1. CN/C(=C\[N+](=O)[O-])NCCSCc1csc(CN(C)C)n1
2. CC(C)=CCl
3. CC(C)CCCCCCCOC(=O)CCCCC(=O)OCCCCCCCC(C)C

-- reply
inactive
inactive
inactive

----------
experiment: qHTS assay for small molecule agonists of the p53 signaling pathway (AID 651631); details: HCT-116 p53RE-bla reporter, beta-lactamase FRET ratio, 16 h; series mostly up to 73.3 µM; further: on the % scale 0 is the no-effect control and ±100 the full control effect; nearly all actives have a fitted effect of over 15% in size
Inconclusive results are not listed. The source made the active and inactive calls. The call rests on the fitted dose curve.
measured_parameter: outcome

// known answers, use as guide
# compound, outcome
measured = [
    ("C[Si]1(C)O[Si](C)(C)O[Si](C)(C)O[Si](C)(C)O1", "inactive"),
    ("NCCCCCCN", "inactive"),
    ("CCOCCOCCOCCO", "inactive"),
    ("CNC(=S)N(C)C", "inactive"),
    ("CC1(C)NC(=O)NC1=O", "inactive"),
]

For each listed entry, give its outcome.
1. C=CCc1ccc(OC)c(OC)c1
2. CNC(=O)Oc1ccc2c(c1)[C@]1(C)CCN(C)[C@@H]1N2C
3. C=CCCCCCCCCC(=O)O

-- reply
1: inactive; 2: inactive; 3: inactive

For each listed entry, give its outcome.
1. CCCCCCCCCCO
2. CCCCCCCC=O
3. O=C(O)CCCCCCCCC(=O)O
4. CC(C)CC(=O)CC(C)CC(C)C (stereo not drawn)
5. C=C(C)C(=O)OCC(C)C

-- reply
["inactive", "inactive", "inactive", "inactive", "inactive"]

----------
assay: qHTS assay to identify small molecule HDAC inhibitors - cell viability counter screen (AID 1259365); settings: HCT-116 viability, CellTiter-Glo ATP luminescence, 2 h; series mostly up to 92.4 µM; further: on the % scale 0 is the no-effect control and ±100 the full control effect; nearly all actives have a fitted effect of over 50% in size
Activity calls are given as the source filed them. Calls follow the shape of the dose curve; as a rule, active = well fitted cell-killing curve with a large enough effect in the repeat runs; inconclusive = weak or mixed curves, or effect the other way; inactive = flat fitted curve, though single readings scatter.
measured_parameter: outcome

# compound, outcome
measured = [
    ("O=S(=O)(O)c1ccccc1", "inactive"),
    ("CCCCC(C=O)CC (stereo unspecified)", "inactive"),
    ("Cc1ccc(C(C)C)c(O)c1", "inactive"),
    ("C=C(C)[C@H]1CC=C(C)C(=O)C1", "inactive"),
    ("C[C@]12CCC(=O)C=C1CC[C@@H]1[C@@H]2[C@@H](O)C[C@@]2(C)[C@H]1CC[C@]2(O)C(=O)CO", "inactive"),
    ("COCCOC(=O)c1ccccc1C(=O)OCCOC", "inactive"),
]

For each listed entry, give its outcome.
1. CC(CCl)OP(=O)(OC(C)CCl)OC(C)CCl (stereo unspecified)
2. Brc1ccc(Br)c(Br)c1
3. O=C1C(c2[nH]c3ccccc3c2O)=Nc2ccccc21
4. CC(=O)c1ccc(O)cc1
5. NCCN1CCNCC1
6. COCCCN
7. NC(=S)NNC(N)=S

-- reply
inactive
inactive
inactive
inactive
inactive
inactive
inactive

For each listed entry, give its outcome.
1. CCc1ccccc1CC
2. COC(=O)c1cccnc1
3. CSc1ccc(Cl)cc1
4. CCOC(=O)n1ccn(C)c1=S
5. CCCCCCCO

-- reply
inactive
inactive
inactive
inactive
inactive

For each listed entry, give its outcome.
1. CCNc1cccc(C)c1
2. CN(C)CCOC(=O)COc1ccc(Cl)cc1
3. COc1cc(OC)c(C(=O)CCCN2CCCC2)c(OC)c1
4. O=[N+]([O-])c1ccc2nc[nH]c2c1

-- reply
["inactive", "inactive", "inactive", "inactive"]
